system: 994946-033-R-J1-PDC complex spheroid viability; experiment: Anticancer human tumor 994946-033-R-J1-PDC patient-derived melanoma cell line growth inhibition [POLQ]; details: second compound 3.16 µM; first compound 0.00316 µM; stronger effect = lower value
readout.name: viability, T/C (%)
Numbers only, in %.

Prompt: // output viability, T/C; input Cn1ncnc1[C@H]1c2n[nH]c(=O)c3cc(F)cc(c23)N[C@@H]1c1ccc(F)cc1 + Cc1cccc(N(C)C(=O)C2C(O)CCN2c2nc(C)cc(C(F)(F)F)c2C#N)c1 ; system 994946-033-R-J1-PDC complex spheroid viability
Completion: 98

Give viability, T/C for all molecules that follow.
1. COc1cccc(OCCCN)c1-c1cc(Nc2cnc(C#N)cn2)n[nH]1 + COC1C(OC(N)=O)C(O)C(Oc2ccc3c(O)c(NC(=O)c4ccc(O)c(CC=C(C)C)c4)c(=O)oc3c2C)OC1(C)C
2. CC[C@@]1(O)C(=O)OCc2c1cc1n(c2=O)Cc2cc3c(CN(C)C)c(O)ccc3nc2-1 + Nc1ccc(C#CCN(C(=O)Cc2ncc(C(F)(F)F)cc2C(F)(F)F)c2ccc(F)cc2)nn1

Completion:
[85.8, 96.8]

---

Assign viability, T/C to each entry below.
tested on: 994946-033-R-J1-PDC complex spheroid viability; test: Anticancer human tumor 994946-033-R-J1-PDC cell line growth inhibition [POLQ]; settings: second compound 10 µM; first compound 10 µM; stronger effect = lower value;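 note: spheroids exposed to drugs for 7 days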;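 for viability, T/C: 100% = DMSO vehicle treated spheroids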
Answers are plain numbers, in %.

Prompt: // output viability, T/C; input CC1COCCN1c1cc(-c2ccnn2C)c2ccnc(-c3ccn[nH]3)c2n1 (stereo not given) + Cc1cccc(N(C)C(=O)C2C(O)CCN2c2nc(C)cc(C(F)(F)F)c2C#N)c1 ; system 994946-033-R-J1-PDC complex spheroid viability
Completion: 8.65

Give viability, T/C for all compounds that follow.
1. CC1COCCN1c1cc(-c2ccnn2C)c2ccnc(-c3ccn[nH]3)c2n1 (stereo not given) + COC1C(OC(N)=O)C(O)C(Oc2ccc3c(O)c(NC(=O)c4ccc(O)c(CC=C(C)C)c4)c(=O)oc3c2C)OC1(C)C
2. Nc1ccn(C2OC(CO)C(O)C2(F)F)c(=O)n1 (stereo not given) + COC1C(OC(N)=O)C(O)C(Oc2ccc3c(O)c(NC(=O)c4ccc(O)c(CC=C(C)C)c4)c(=O)oc3c2C)OC1(C)C
3. O=C(Nc1ccc(O)c(NS(=O)(=O)c2ccc(F)cc2)c1)c1ccc(-c2ccccc2)cc1 + Nc1ccc(C#CCN(C(=O)Cc2ncc(C(F)(F)F)cc2C(F)(F)F)c2ccc(F)cc2)nn1
4. C#Cc1c(F)ccc2cc(O)cc(-c3ncc4c(N5CC6CCC(C5)N6)nc(OCC56CCCN5CC(F)C6)nc4c3F)c12 (stereo not given) + Nc1ccc(C#CCN(C(=O)Cc2ncc(C(F)(F)F)cc2C(F)(F)F)c2ccc(F)cc2)nn1

Completion:
10.3
2.82
53.1
20.3

---

Assign pIC50 to each entry below.
test system: 994946-033-R-J1-PDC complex spheroid viability; test: Anticancer human tumor 994946-033-R-J1-PDC cell line growth inhibition [POLQ]; settings: curve of first compound; second compound 0.316 µM;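 note: spheroids exposed to drugs for 7 days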
Give bare numbers, as −log10 of the molar value.

Prompt: Hello, please tell me recorded pIC50 for this one: C#Cc1c(F)ccc2cc(O)cc(-c3ncc4c(N5CC6CCC(C5)N6)nc(OCC56CCCN5CC(F)C6)nc4c3F)c12 (stereo not given) + COC1C(OC(N)=O)C(O)C(Oc2ccc3c(O)c(NC(=O)c4ccc(O)c(CC=C(C)C)c4)c(=O)oc3c2C)OC1(C)C
Completion: 5.40

For the next question, use this molecule.
Prompt: Hello, please tell me recorded pIC50 for this one: COc1ccc([C@@H](O)c2cc(-c3ncnc4cc(N5CCOCC5)ccc34)c(F)cc2Cl)nn1 + Cc1cccc(N(C)C(=O)C2C(O)CCN2c2nc(C)cc(C(F)(F)F)c2C#N)c1
Completion: 5.65

---

system: 994946-033-R-J1-PDC complex spheroid viability; test: Anticancer human tumor 994946-033-R-J1-PDC cell line growth inhibition [POLQ]; settings: second compound 0.1 µM; first compound 0.0316 µM; active means viability on the fitted dose curve at most 10% of control; inactive means the rest;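 note: spheroids exposed to drugs for 7 days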
The reply should name one outcome from active, inactive

Examples with answers:
Prompt: # fetch the recorded call for CC(C)n1c(=O)n(C)c2cnc3cc(F)c(-c4ccc(OCCCN5CCCCC5)nc4)cc3c21 + COC1C(OC(N)=O)C(O)C(Oc2ccc3c(O)c(NC(=O)c4ccc(O)c(CC=C(C)C)c4)c(=O)oc3c2C)OC1(C)C here
Completion: inactive

Prompt: # fetch the recorded call for COc1cc2cc(C(=O)CCC(=O)O)sc2cc1OC + Nc1ccc(C#CCN(C(=O)Cc2ncc(C(F)(F)F)cc2C(F)(F)F)c2ccc(F)cc2)nn1 here
Completion: inactive

Prompt: # fetch the recorded call for O=C(c1cc(Cc2n[nH]c(=O)c3ccccc23)ccc1F)N1CCN(C(=O)C2CC2)CC1 + Nc1ccc(C#CCN(C(=O)Cc2ncc(C(F)(F)F)cc2C(F)(F)F)c2ccc(F)cc2)nn1 here
Completion: inactive

Prompt: # fetch the recorded call for CCc1c2c(nc3ccc(O)cc13)-c1cc3c(c(=O)n1C2)COC(=O)[C@]3(O)CC + Cc1cccc(N(C)C(=O)C2C(O)CCN2c2nc(C)cc(C(F)(F)F)c2C#N)c1 here
Completion: active

Next:
Prompt: # fetch the recorded call for CC1COCCN1c1cc(-c2ccnn2C)c2ccnc(-c3ccn[nH]3)c2n1 (stereo not given) + COC1C(OC(N)=O)C(O)C(Oc2ccc3c(O)c(NC(=O)c4ccc(O)c(CC=C(C)C)c4)c(=O)oc3c2C)OC1(C)C here
Completion: inactive

---

System: 994946-033-R-J1-PDC complex spheroid viability
Assay: Anticancer human tumor 994946-033-R-J1-PDC cell line growth inhibition [POLQ]; active = viability on the fitted dose curve at most 10% of control; inactive = the rest;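 note: spheroids exposed to drugs for 7 days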
Conditions: second compound 10 µM; first compound 10 µM
Protocol: Multicellular complex tumor spheroid response to Polymerase (POL) inhibitors (novobiocin, ART-558, RP6685) in combination with a variety of drugs and investigational agents in selected tumor cell lines The POL inhibitors (novobiocin, ART-558, and RP6685) were evaluated both individually and in combination with standard of care and investigational anticancer small molecules within a complex spheroid model of solid tumors. . […]
The reply should name one outcome from label 1 = active, label 0 = inactive

Prompt: # fetch the recorded call for O=C(c1cc(Cc2n[nH]c(=O)c3ccccc23)ccc1F)N1CCN(C(=O)C2CC2)CC1 + Cc1cccc(N(C)C(=O)C2C(O)CCN2c2nc(C)cc(C(F)(F)F)c2C#N)c1 here
Completion: label 0

Prompt: # fetch the recorded call for CC1COCCN1c1cc(C2(S(C)(=N)=O)CC2)nc(-c2ccnc3[nH]ccc23)n1 (stereo unspecified) + COC1C(OC(N)=O)C(O)C(Oc2ccc3c(O)c(NC(=O)c4ccc(O)c(CC=C(C)C)c4)c(=O)oc3c2C)OC1(C)C here
Completion: label 0

Next:
Prompt: # fetch the recorded call for CNCc1ccc(-c2[nH]c3cc(F)cc4c3c2CCNC4=O)cc1 + Cc1cccc(N(C)C(=O)C2C(O)CCN2c2nc(C)cc(C(F)(F)F)c2C#N)c1 here
Completion: label 0

Prompt: # fetch the recorded call for CC(C)n1c(=O)n(C)c2cnc3cc(F)c(-c4ccc(OCCCN5CCCCC5)nc4)cc3c21 + COC1C(OC(N)=O)C(O)C(Oc2ccc3c(O)c(NC(=O)c4ccc(O)c(CC=C(C)C)c4)c(=O)oc3c2C)OC1(C)C here
Completion: label 0

Prompt: # fetch the recorded call for COc1cc(C2c3cc4c(cc3C(OC3OC5COC(C)OC5C(O)C3O)C3COC(=O)C23)OCO4)cc(OC)c1O (stereo unspecified) + Cc1cccc(N(C)C(=O)C2C(O)CCN2c2nc(C)cc(C(F)(F)F)c2C#N)c1 here
Completion: label 1

Prompt: # fetch the recorded call for CC(C)n1c(=O)n(C)c2cnc3cc(F)c(-c4ccc(OCCCN5CCCCC5)nc4)cc3c21 + Cc1cccc(N(C)C(=O)C2C(O)CCN2c2nc(C)cc(C(F)(F)F)c2C#N)c1 here
Completion: label 0

---

system: 994946-033-R-J1-PDC complex spheroid viability; experiment: Anticancer human tumor 994946-033-R-J1-PDC cell line growth inhibition [POLQ]; conditions: second compound 0.1 µM; first compound 0.0316 µM; stronger effect = lower value;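 note: spheroids exposed to drugs for 7 days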;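 for viability, T/C: 100% = DMSO vehicle treated spheroids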
Assign viability, T/C to each entry below.
One number for each entry, in %.

Use the examples below as a reference point.
Prompt: Hello, please tell me recorded viability, T/C for this one: COc1cccc(OCCCN)c1-c1cc(Nc2cnc(C#N)cn2)n[nH]1 + Cc1cccc(N(C)C(=O)C2C(O)CCN2c2nc(C)cc(C(F)(F)F)c2C#N)c1
Completion: 29.9

Prompt: Hello, please tell me recorded viability, T/C for this one: Cn1ncnc1[C@H]1c2n[nH]c(=O)c3cc(F)cc(c23)N[C@@H]1c1ccc(F)cc1 + COC1C(OC(N)=O)C(O)C(Oc2ccc3c(O)c(NC(=O)c4ccc(O)c(CC=C(C)C)c4)c(=O)oc3c2C)OC1(C)C
Completion: 72.8

Prompt: Hello, please tell me recorded viability, T/C for this one: CC(C)n1c(=O)n(C)c2cnc3cc(F)c(-c4ccc(OCCCN5CCCCC5)nc4)cc3c21 + Cc1cccc(N(C)C(=O)C2C(O)CCN2c2nc(C)cc(C(F)(F)F)c2C#N)c1
Completion: 92.1

Give viability, T/C for all molecules that follow.
1. CC[C@@]1(O)C(=O)OCc2c1cc1n(c2=O)Cc2cc3c(CN(C)C)c(O)ccc3nc2-1 + Cc1cccc(N(C)C(=O)C2C(O)CCN2c2nc(C)cc(C(F)(F)F)c2C#N)c1
2. Cn1ncnc1[C@H]1c2n[nH]c(=O)c3cc(F)cc(c23)N[C@@H]1c1ccc(F)cc1 + Cc1cccc(N(C)C(=O)C2C(O)CCN2c2nc(C)cc(C(F)(F)F)c2C#N)c1
3. CC1COCCN1c1cc(C2(S(C)(=N)=O)CC2)nc(-c2ccnc3[nH]ccc23)n1 (stereo not given) + Cc1cccc(N(C)C(=O)C2C(O)CCN2c2nc(C)cc(C(F)(F)F)c2C#N)c1

Completion:
1: 28.5; 2: 88.3; 3: 71.6

Give viability, T/C for all molecules that follow.
1. CNCc1ccc(-c2[nH]c3cc(F)cc4c3c2CCNC4=O)cc1 + COC1C(OC(N)=O)C(O)C(Oc2ccc3c(O)c(NC(=O)c4ccc(O)c(CC=C(C)C)c4)c(=O)oc3c2C)OC1(C)C
2. COc1cccc(OCCCN)c1-c1cc(Nc2cnc(C#N)cn2)n[nH]1 + Nc1ccc(C#CCN(C(=O)Cc2ncc(C(F)(F)F)cc2C(F)(F)F)c2ccc(F)cc2)nn1
3. C=CC(=O)N1CCN(c2nc(=O)n(-c3c(C)ccnc3C(C)C)c3nc(-c4c(O)cccc4F)c(F)cc23)C(C)C1 (stereo not given) + COC1C(OC(N)=O)C(O)C(Oc2ccc3c(O)c(NC(=O)c4ccc(O)c(CC=C(C)C)c4)c(=O)oc3c2C)OC1(C)C
4. C=CC(=O)N1CCN(c2nc(=O)n(-c3c(C)ccnc3C(C)C)c3nc(-c4c(O)cccc4F)c(F)cc23)C(C)C1 (stereo not given) + Cc1cccc(N(C)C(=O)C2C(O)CCN2c2nc(C)cc(C(F)(F)F)c2C#N)c1
5. CCCS(=O)(=O)Nc1ccc(F)c(C(=O)c2c[nH]c3ncc(-c4ccc(Cl)cc4)cc23)c1F + Cc1cccc(N(C)C(=O)C2C(O)CCN2c2nc(C)cc(C(F)(F)F)c2C#N)c1
6. O=C(c1cc(Cc2n[nH]c(=O)c3ccccc23)ccc1F)N1CCN(C(=O)C2CC2)CC1 + COC1C(OC(N)=O)C(O)C(Oc2ccc3c(O)c(NC(=O)c4ccc(O)c(CC=C(C)C)c4)c(=O)oc3c2C)OC1(C)C

Completion:
1: 107; 2: 38.4; 3: 102; 4: 94.5; 5: 91.3; 6: 110

Give viability, T/C for all molecules that follow.
1. CCc1cc2c(N3CCc4c(cc(Cn5ccnc5)cc4-c4cn(C)nc4C(F)(F)F)C3=O)ccnc2c(OC)n1 + COC1C(OC(N)=O)C(O)C(Oc2ccc3c(O)c(NC(=O)c4ccc(O)c(CC=C(C)C)c4)c(=O)oc3c2C)OC1(C)C
2. C=CC(=O)N1CCN(c2nc(=O)n(-c3c(C)ccnc3C(C)C)c3nc(-c4c(O)cccc4F)c(F)cc23)C(C)C1 (stereo not given) + Nc1ccc(C#CCN(C(=O)Cc2ncc(C(F)(F)F)cc2C(F)(F)F)c2ccc(F)cc2)nn1
3. CCc1cc2c(N3CCc4c(cc(Cn5ccnc5)cc4-c4cn(C)nc4C(F)(F)F)C3=O)cc(C)nc2c(OC)n1 + Nc1ccc(C#CCN(C(=O)Cc2ncc(C(F)(F)F)cc2C(F)(F)F)c2ccc(F)cc2)nn1
4. CCc1cc2c(N3CCc4c(cc(Cn5ccnc5)cc4-c4cn(C)nc4C(F)(F)F)C3=O)cc(C)nc2c(OC)n1 + COC1C(OC(N)=O)C(O)C(Oc2ccc3c(O)c(NC(=O)c4ccc(O)c(CC=C(C)C)c4)c(=O)oc3c2C)OC1(C)C

Completion:
1. 92.7
2. 102
3. 78.7
4. 83.5

Give viability, T/C for all molecules that follow.
1. CCc1cc2c(N3CCc4c(cc(Cn5ccnc5)cc4-c4cn(C)nc4C(F)(F)F)C3=O)ccnc2c(OC)n1 + Nc1ccc(C#CCN(C(=O)Cc2ncc(C(F)(F)F)cc2C(F)(F)F)c2ccc(F)cc2)nn1
2. O=C(Nc1ccc(O)c(NS(=O)(=O)c2ccc(F)cc2)c1)c1ccc(-c2ccccc2)cc1 + Cc1cccc(N(C)C(=O)C2C(O)CCN2c2nc(C)cc(C(F)(F)F)c2C#N)c1
3. COc1cccc2c1C(=O)c1c(O)c3c(c(O)c1C2=O)CC(O)(C(=O)CO)CC3OC1CC(N)C(O)C(C)O1 (stereo not given) + Nc1ccc(C#CCN(C(=O)Cc2ncc(C(F)(F)F)cc2C(F)(F)F)c2ccc(F)cc2)nn1
4. CC1COCCN1c1cc(C2(O)CC3CCC(C2)O3)c2cnn(-c3ccn[nH]3)c2n1 (stereo not given) + Cc1cccc(N(C)C(=O)C2C(O)CCN2c2nc(C)cc(C(F)(F)F)c2C#N)c1

Completion:
[101, 108, 47.5, 52.7]

The values you see were collected from PubChem BioAssay AID1963827.
